Test system: HCT-116 colon
Test: NCI-60 one-dose screen, 48 h (100 = growth as untreated, 0 = no growth, -100 = all killed)
Settings: 10 µM unless noted
This is part of a sample that, as a whole, favours compounds with a hit. Of some 83,000 tested, about 20% had one in any assay. Calls of active or inactive are those of the source. How the source made its calls: active means growth percent below 10; inactive means the rest.
parameter_measured: growth

According to the records, this compound COc1ccc(C(=O)C2C(C#N)C(C#N)C3C=Cc4ccccc4N32)cc1 (stereo not given) displays growth of 15.9% (inactive)

According to the records, this compound COc1ccccc1/C(C)=N/NC(=O)CSc1nc2ccccc2c(=O)n1Cc1ccc(S(N)(=O)=O)cc1 displays growth of 95.9% (inactive)

According to the records, this compound O=C(Cc1ccc(/C=C/C(=O)c2ncc[nH]2)cc1)Nc1ccc(Cl)cc1 displays growth of -47.5% (active)

According to the records, this compound Cn1c(N2NC(=O)C(N=Nc3ccc(S(N)(=O)=O)cc3)C2=O)nc(-c2ccco2)c(C#N)c1=O (stereo not given) displays growth of 76.4% (inactive)

According to the records, this compound O=C(Nc1ccc(Cl)cc1)c1cc(NCc2cc(O)ccc2O)ccc1O displays growth of 91.3% (inactive)

* * *

Test system: SF-268 CNS
Experiment: NCI-60 one-dose screen, 48 h
Conditions: 10 µM unless noted
This is part of a sample that, as a whole, favours compounds with a hit. Of some 83,000 tested, about 20% had one in any assay. Active and inactive are the calls of the source. Rule for the calls: active = growth percent below 10; inactive = the rest.
Output constraint: value belongs to TRUE for active, FALSE for inactive

Use the examples below as a reference point.
O=S(=O)(NCCCNc1nccc(-c2c(-c3cccc(O)c3)nc3occn23)n1)c1ccc(Cl)cc1 = FALSE
Cc1ccc(/C=N/NC(=O)CSc2nc3ccccc3c(=O)n2Cc2ccc(S(N)(=O)=O)cc2)cc1 = FALSE
COc1ccc(NC(N)=NCCCOc2ccc(F)cc2)cc1 = FALSE
N#Cc1c(-c2ccccc2)nc2c(c(-c3ccccc3)nn2-c2ccccc2)c1-c1ccc(O)cc1 = FALSE
O=C1c2ccc3c4c(ccc(c24)C(=O)N1CCCNCc1ccccc1F)C(=O)N(CCCNCc1ccccc1F)C3=O = TRUE
O=C1c2cccc3c(-c4ccc5c(c4)ncn5C4CCCCC4)ccc(c23)C(=O)N1c1nc2ccccc2s1 = FALSE

Exercise: Outcome? COc1cccc(/C=N/NC(=O)c2cnn3c2NC(c2ccccc2)C3)c1Oc1ccccc1 (configuration not stated)
Key: FALSE

* * *

System: COLO 205 colon
Assay: NCI-60 one-dose screen, 48 h (100 = growth as untreated, 0 = no growth, -100 = all killed)
Conditions: 10 µM unless noted
This is part of a sample that, as a whole, favours compounds with a hit. Of some 83,000 tested, about 20% had one in any assay.
parameter_measured: growth (%)
I only need the number, in %, no unit after it.

Consider the following illustrative entries.
COc1ccc(C(=O)c2cc(C)c(OC)c(C)c2)c(OC)c1OC(=O)C(Cl)Cl = 73.5
CCN(CC)c1ccc(C(=O)c2ccccc2)cc1 = 111
COc1ccc2nc(-c3ccc(-c4noc(-c5cc(OC)c(OC)c(OC)c5)n4)cc3)[nH]c2c1 = 78.4
CCN(Cc1ccccc1)c1ccc(C=O)cc1 = 113
CN(CCN(C)c1ccc(C(=N)N)cc1)c1ccc(C(=N)N)cc1 = 134
Nc1c(C(=O)Nc2ccnc3ccccc23)sc2nc3c(cc12)CN(Cc1ccccc1)CC3 = 97.3
OC(c1ccc(F)c(C(F)(F)F)c1)c1cnccc1NC1CCCCC1 (centres undefined) = -60.8
C#CCNC(=O)[C@H](Cc1ccccc1)NC(=O)[C@]12CC[C@@H](C(=C)C)[C@@H]1[C@H]1CC[C@@H]3[C@@]4(C)CCC(=O)C(C)(C)[C@@H]4CC[C@@]3(C)[C@]1(C)CC2 = 78.7

The reported COLO 205 colon growth of O=C1C=CC(=O)N1c1cccc(Cl)c1 is -6.46

The reported COLO 205 colon growth of OCc1cnccc1NCCCCOc1ccc(Oc2ccccc2)cc1 is -10.4

The reported COLO 205 colon growth of Cc1cc2c(C(=O)NCC#N)cccc2n1-c1nc2c(c(NCc3ccccc3)n1)CCCC2 is -51

The reported COLO 205 colon growth of C=C(C)[C@@H]1CC[C@]2(CN)CC[C@]3(C)[C@H](CC[C@@H]4[C@@]5(C)CCCNC(C)(C)[C@@H]5CC[C@]43C)[C@@H]12 is -71.2

The reported COLO 205 colon growth of COc1ccc(CCn2cncc2-c2c[nH]c3ccccc23)cc1 is 96.9

The reported COLO 205 colon growth of COc1ccc(OC)c(-c2cc(-c3ccc(Cl)cc3)c3c(N)c(C(=O)c4ccc(Cl)cc4)sc3n2)c1 is 110

The reported COLO 205 colon growth of O=C(NCCc1ccccc1)Nc1ccc2cc3ccc(NC(=O)NCCc4ccccc4)cc3nc2c1 is 10.8
